Cited source: the supplement of paper PMC6555819

Test system: RARb:RXRa (NR concentration 270 nM, RXRa partner concentration 90 nM)
Assay: PBM binding z-score (relative to random genomic background probes); higher = stronger binding; sequences stand for … in GC…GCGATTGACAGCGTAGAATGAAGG
metric_name: PBM binding z-score
No unit in the answer, please; the number alone is enough.

Here is how some sequences turned out for PBM binding z-score.
                     ordered_residues  meas_value
0  ACTATTGGTTGAGACGAGGGCAACCGATAGGTTG        1.07
1  CCGTGTAGGTTATGGGGCATTCAGGCAACGGTGA        1.33
2  ACAGACAGGTGATGAAGGTAACCCAGGCTATCAT       0.413
3  CGTCCAAGGTCAAGATCAGTGAAAGAGACTCGAA        5.14
4  CCAACTGGGGCAGAAAGGTTACCATACCATCCGG        2.03
5  AATACAGGGTCATCGTAGGCCAAAGTACGCACAG        4.29
6  AATACAGGGTTATCGTAGGCCAGAGTACGCACAG         1.3
7  CAAACTAGGTCACCGGCAGGTCAAAGTCCGCATG        4.93

Enquiry: Notebook: pull reported PBM binding z-score for RARb:RXRa (NR concentration 270 nM, RXRa partner concentration 90 nM), entry GCTTGTAGATCAAGGTTAAGAATGACTAAGCTAA
Return: 0.932

Enquiry: Ok, now TCGAGTAGGTTAGTCAGGGCATTCAGCCAACATA
Return: 0.484

Enquiry: Proceed to TCATATAGGTACAAGGTGAAAGTCGGTGTGGTAA
Return: 1.12

Enquiry: Try this sequence next: ACTCGGAGGACACAGGTCAGAGCTACGCCAGTGA
Return: 2.89
